Provenance of the data: ChEMBL document CHEMBL1961873

Target: Calcium/calmodulin-dependent protein kinase type 1D (Homo sapiens) (UniProt Q8IU85);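 further: reported figure is the mean percent inhibition of CAMK1D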
Sequence (Q8IU85 whole entry, looked up): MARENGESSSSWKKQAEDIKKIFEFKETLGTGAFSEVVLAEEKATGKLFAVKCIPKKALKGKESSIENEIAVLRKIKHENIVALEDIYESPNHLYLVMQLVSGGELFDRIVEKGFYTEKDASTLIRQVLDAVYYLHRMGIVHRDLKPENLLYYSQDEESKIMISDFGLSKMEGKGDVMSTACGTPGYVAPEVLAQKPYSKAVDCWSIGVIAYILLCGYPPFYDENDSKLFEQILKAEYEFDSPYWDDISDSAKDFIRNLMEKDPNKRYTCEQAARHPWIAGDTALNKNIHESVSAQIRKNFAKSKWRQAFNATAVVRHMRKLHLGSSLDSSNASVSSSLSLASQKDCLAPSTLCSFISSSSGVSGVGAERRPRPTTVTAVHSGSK
Conditions: at 1 µM
measurement.kind: inhibition (%)

• COC(=O)c1ccc2c(c1)C(=Cc1cc(Br)c(O)c(Br)c1)C(=O)N2 = 3.35
• COc1ccc2ncnc(Nc3ccc(OCc4ccccc4)cc3)c2c1 = 1.33
• NS(=O)(=O)c1ccc(-c2cc3ccncc3cc2OCc2ccccc2)cc1 = 0.65
• [O-][S+]1CCN(Cc2ccc(-c3ccc4ncnc(Nc5ccc(OCc6ccccc6)c(Cl)c5)c4c3)o2)CC1 = 0.11
• Nc1ccc(C#Cc2cncnc2Nc2ccc(OCc3cccc(F)c3)c(Cl)c2)cc1 = 0.65
• Oc1cccc(-c2nc(-c3ccccc3)[nH]c2-c2ccncc2)c1 = 1.01

---

Parameter inhibition: see the listing below.
Target: BDNF/NT-3 growth factors receptor (Homo sapiens);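 further: each value is a mean percent inhibition of TrkB kinase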
Settings: at 0.1 µM
measurement.kind: inhibition

* COc1cccc(-n2ncc3c(N/N=C/c4ccc(C)cc4)ncnc32)c1 | 3.97%
* CS(=O)(=O)Nc1cccc(-c2ccc3c(NC(=O)C4CC4)n[nH]c3c2)c1 | 0.05%
* Cc1cc(O)cc(C)c1/C=C/c1cncc(C(=O)N(C)C)c1 | 1.59%
* NS(=O)(=O)c1cccc(Nc2cc(-c3ccc(F)cc3)n[nH]2)c1 | 4.73%
* Nc1nccc(-c2c(-c3ccc(F)cc3)ncn2CCCN2CCOCC2)n1 | 1.18%
* Cc1ccc2c(c1)/C(=N/Nc1ccc(S(N)(=O)=O)cc1)C(=O)N2 | 3.81%
* CC(C)c1ccc(Nc2nccc(-c3cnn4ncccc34)n2)cc1 | 2.01%
* COc1ccc(-c2nn3ncccc3c2-c2ccnc(Nc3cccc(C(F)(F)F)c3)n2)cc1 | 1.95%
* N#Cc1c(NC(=O)c2ccccc2F)sc2c1CCCC2 | -1.85%
* CN(C)c1cc2c(Nc3ccc4c(cnn4Cc4ccccc4)c3)ncnc2cn1 | 1.16%
* [O-][S+]1CCN(Cc2ccc(-c3ccc4ncnc(Nc5ccc(OCc6ccccc6)c(Cl)c5)c4c3)o2)CC1 | 1.6%
* NS(=O)(=O)c1cccc(-c2cc3ccncc3cc2OCc2ccccc2)c1 | 2.94%
* CN(C)CCCn1c(-c2nonc2N)nc2cnccc21 | -0.15%
* COC(=O)c1ccc2c(c1)C(=Cc1cc(Br)c(O)c(Br)c1)C(=O)N2 | 3.26%
* COC(=O)c1cncc(/C=C/c2c(C)cc(O)cc2C)c1 | 2.4%
* COc1cc2ncnc(Nc3ccc4c(cnn4Cc4ccccc4)c3)c2cc1OC | 2.13%
* COC(=O)Nc1nc2cc(Oc3ccc(NC(=O)Nc4cccc(Br)c4)cc3)ccc2[nH]1 | 19.7%
* O=S(=O)(CCOCc1ccc(-c2ccc3ncnc(Nc4ccc(OCc5cccc(F)c5)c(Cl)c4)c3c2)o1)c1ccccc1 | 2.42%
* CS(=O)(=O)CCNCc1nc(-c2ccc3ncnc(Nc4ccc(OCc5cccc(C(F)(F)F)c5)cc4)c3c2)cs1 | 2.33%
* COc1ccc2ncnc(Nc3ccc(OCc4ccccc4)cc3)c2c1 | 2.59%
* C[C@@H](Oc1cc(-n2cnc3ccc(OCC4CCN(C)CC4)cc32)sc1C(N)=O)c1ccccc1C(F)(F)F | -0.51%

---

Target: Protein kinase C beta type (Homo sapiens) (UniProt P05771);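 further: GSK PKIS screen, average inhibition of the PKC-beta2 splice variant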
Sequence (P05771 2-671 limits assumed): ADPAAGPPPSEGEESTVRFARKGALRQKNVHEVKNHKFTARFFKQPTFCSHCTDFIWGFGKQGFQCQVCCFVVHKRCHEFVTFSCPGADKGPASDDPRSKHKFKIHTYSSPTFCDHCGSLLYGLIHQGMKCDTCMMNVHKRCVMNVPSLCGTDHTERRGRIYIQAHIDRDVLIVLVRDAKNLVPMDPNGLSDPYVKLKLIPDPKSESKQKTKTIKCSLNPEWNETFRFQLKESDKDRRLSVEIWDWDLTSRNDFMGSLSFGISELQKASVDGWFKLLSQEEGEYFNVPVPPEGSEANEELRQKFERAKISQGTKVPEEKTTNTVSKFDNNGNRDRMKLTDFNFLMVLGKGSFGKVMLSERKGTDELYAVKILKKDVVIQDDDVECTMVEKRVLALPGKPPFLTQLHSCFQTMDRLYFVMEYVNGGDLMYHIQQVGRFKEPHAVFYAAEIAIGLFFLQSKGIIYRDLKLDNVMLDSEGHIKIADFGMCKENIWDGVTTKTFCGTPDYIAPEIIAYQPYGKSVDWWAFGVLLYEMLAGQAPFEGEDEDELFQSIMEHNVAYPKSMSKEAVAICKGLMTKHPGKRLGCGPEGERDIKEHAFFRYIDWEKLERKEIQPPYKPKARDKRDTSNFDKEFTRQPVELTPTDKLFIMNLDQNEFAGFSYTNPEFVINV
Conditions: at 1 µM
Description: GSK_PKIS: PKC-beta2 (splice variant) mean inhibition at 1 uM [Nanosyn]
Parameter inhibition: see the listing below.
measurement.kind: inhibition

* NS(=O)(=O)c1ccc(-c2cc3ccncc3cc2OCc2ccccc2)cc1 | 1.74%
* C[C@@H](Oc1cc(-n2cnc3ccc(OCC4CCN(C)CC4)cc32)sc1C(N)=O)c1ccccc1C(F)(F)F | 18.8%
* Cc1ccc(C(=O)NC2CC2)cc1-c1ccc2[nH]ncc2c1 | -0.69%
* CN(C)C(=O)O[C@H]1CN[C@H](C#Cc2cc3ncnc(Nc4ccc(OCc5cccc(F)c5)c(Cl)c4)c3s2)C1 | 1.12%
* N#Cc1cccc(Nc2nccc(-c3cnn4ncccc34)n2)c1 | 30.2%
* CCCN1CCCC(c2ccc(Nc3nc(Nc4cc(F)ccc4C(N)=O)c4cc[nH]c4n3)c(OC)c2)C1 (stereo not given) | 5.27%
* Cc1ccc2c(-c3ccnc(Nc4cccc(C(F)(F)F)c4)n3)c(-c3ccccc3)nn2n1 | 5%
* CCOc1nccc2c1nc(-c1nonc1N)n2CC | 5.23%
* CS(=O)(=O)Nc1cccc(-c2ccc3c(NC(=O)C4CC4)n[nH]c3c2)c1 | 0.61%
* COC(=O)c1cncc(/C=C/c2c(C)cc(O)cc2C)c1 | 2.82%
